molecular target: JAK1 (Homo sapiens (Human)); assay: Jak biochemical HTRF assay, JAK1; conditions: HTRF biochemical assay, recombinant GST-tagged catalytic domain; read-out: JAK1 IC50
Sequence (P23458 875-1153): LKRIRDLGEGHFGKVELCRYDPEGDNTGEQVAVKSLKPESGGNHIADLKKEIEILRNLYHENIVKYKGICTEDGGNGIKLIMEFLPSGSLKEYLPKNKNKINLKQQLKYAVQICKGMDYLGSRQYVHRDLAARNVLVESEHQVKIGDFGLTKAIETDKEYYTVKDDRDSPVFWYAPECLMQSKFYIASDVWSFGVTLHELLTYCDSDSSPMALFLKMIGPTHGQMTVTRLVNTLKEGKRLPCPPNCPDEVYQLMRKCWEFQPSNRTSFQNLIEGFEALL
REPORTED_ENDPOINT: pIC50
Give bare numbers, as −log10 of the molar value.

COMPOUND	REPORTED_VALUE
COCC(C)(O)c1cc(Nc2nn([C@H]3CCCC[C@@H]3C#N)c3cc[nH]c(=O)c23)ccc1S(C)(=O)=O (some centres unmarked)	8.52
N#C[C@H]1CCCC[C@@H]1n1nc(Nc2ccc3c(c2)CN(CCO)S3(=O)=O)c2c(=O)[nH]ccc21	10.10
N#C[C@H]1CCCC[C@@H]1n1nc(Nc2ccc(C3(O)COC3)cc2)c2c(=O)[nH]ccc21	9.49
CC(C)(C)N1Cc2cc(Nc3nn([C@H]4CCCC[C@@H]4C#N)c4cc[nH]c(=O)c34)ccc2C1=O	10.16
N#C[C@H]1CCCC[C@@H]1n1nc(Nc2cccc(CN)c2)c2c(=O)[nH]ccc21	8.82
Cc1cc(Nc2nn([C@H]3CCCC[C@@H]3C#N)c3cc[nH]c(=O)c23)ccc1C(=O)N(C)C	9.47
CN1Cc2cc(Nc3nn([C@H]4CCCC[C@@H]4C#N)c4cc[nH]c(=O)c34)ccc2S1(=O)=O	10.59
CC(C)(C)OC(=O)C1CCC(N2Cc3cc(Nc4nn([C@H]5CCCC[C@@H]5C#N)c5cc[nH]c(=O)c45)ccc3C2=O)CC1 (single isomer, unassigned) [Example 3-134]	9.80
CC(C)(c1ccc(Nc2nn([C@H]3CCCC[C@@H]3C#N)c3cc[nH]c(=O)c23)cc1)n1nccn1	9.85
N#C[C@H]1CCC[C@@H]1n1nc(Nc2ccc3c(c2)CN(CC(F)(F)F)S3(=O)=O)c2c(=O)[nH]ccc21	10.25

Return reported pIC50 values for all items listed beneath this line.
1. CC1(C)C(=O)c2cc(Nc3nn([C@H]4CCCC[C@@H]4C#N)c4cc[nH]c(=O)c34)ccc2S1(=O)=O
2. Cc1nc2ccc(Nc3nn([C@H]4CCCC[C@@H]4C#N)c4cc[nH]c(=O)c34)cc2s1
3. CC(C)CN1Cc2ccc(Nc3nn([C@H]4CCCC[C@@H]4C#N)c4cc[nH]c(=O)c34)cc2C1
4. C[C@H](N[C@@H]1CC[C@H](n2nc(Nc3ccc(C(F)(F)F)cc3)c3c(=O)[nH]ccc32)[C@@H](C#N)C1)C1CC1

Response line:
1. 8.94
2. 10.04
3. 9.55
4. 8.52

* * *

biological target: JAK2 (Homo sapiens (Human)); assay: Jak biochemical HTRF assay, JAK2; details: HTRF biochemical assay, recombinant GST-tagged catalytic domain; read-out: JAK2 IC50
Sequence (O60674 849-1124): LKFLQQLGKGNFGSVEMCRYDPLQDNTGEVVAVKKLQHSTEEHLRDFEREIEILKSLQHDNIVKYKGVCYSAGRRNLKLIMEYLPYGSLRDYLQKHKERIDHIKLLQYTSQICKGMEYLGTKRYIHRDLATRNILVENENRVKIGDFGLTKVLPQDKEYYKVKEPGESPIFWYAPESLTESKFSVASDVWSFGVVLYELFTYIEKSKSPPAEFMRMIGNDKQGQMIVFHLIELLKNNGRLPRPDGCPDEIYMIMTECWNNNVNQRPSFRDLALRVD
Kindly supply the reported IC50 values for the records listed here.
One number for each entry, in nM.

Guide cases for IC50, answers given:
> print(dat)
                                        smi  reported.endpoint  unit.spec  reported.value
1  N#C[C@H]1CCCC[C@@H]1n1nc(Nc2ccc3c(c2)CC2(CCOCC2)S3(=O)=O)c2c(=O)[nH]ccc21               IC50         nM            0.18
2  C[C@H](N[C@@H]1CC[C@H](n2nc(Nc3ccc(OC(F)(F)F)cc3)c3c(=O)[nH]ccc32)[C@@H](C#N)C1)C1CC1               IC50         nM             233
3  N#C[C@H]1CCCC[C@@H]1n1nc(Nc2ccc(S(=O)(=O)N3CCCCC3)cc2)c2c(=O)[nH]ccc21               IC50         nM            0.48

Kindly consider the entry below.
Prompt line: I would be grateful if you could share the reported IC50 for "CS(=O)(=O)c1ccc(Nc2nn([C@@H]3CCCC[C@H]3C#N)c3cc[nH]c(=O)c23)cc1" .
Response line: 16
